Tested system: Prostaglandin G/H synthase 1 (Ovis aries, UniProt P05979)
Sequence (P05979 whole entry): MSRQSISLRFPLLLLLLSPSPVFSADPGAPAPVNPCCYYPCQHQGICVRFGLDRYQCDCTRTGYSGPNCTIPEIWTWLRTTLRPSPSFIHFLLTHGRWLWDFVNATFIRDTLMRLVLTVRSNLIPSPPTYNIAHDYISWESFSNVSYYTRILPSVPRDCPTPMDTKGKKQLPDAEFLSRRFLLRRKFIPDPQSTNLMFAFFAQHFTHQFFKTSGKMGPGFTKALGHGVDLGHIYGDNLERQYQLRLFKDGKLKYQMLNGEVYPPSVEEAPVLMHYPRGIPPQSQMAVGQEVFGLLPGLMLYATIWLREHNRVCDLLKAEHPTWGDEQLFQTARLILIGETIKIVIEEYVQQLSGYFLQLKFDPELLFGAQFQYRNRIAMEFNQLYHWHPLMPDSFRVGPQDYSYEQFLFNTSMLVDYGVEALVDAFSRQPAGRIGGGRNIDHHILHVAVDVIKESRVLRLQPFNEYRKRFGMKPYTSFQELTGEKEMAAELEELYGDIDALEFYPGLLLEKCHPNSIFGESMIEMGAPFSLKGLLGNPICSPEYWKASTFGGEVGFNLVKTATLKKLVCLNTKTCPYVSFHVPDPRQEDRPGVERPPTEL
Quantity name: IC50

In the examples that follow, each entry is paired with its recorded IC50.
CCCCCC/C(=C\c1ccccc1)c1ccc(S(C)(=O)=O)cc1 : > 100 µM
CCC/C(=C\c1ccccc1)c1ccc(S(C)(=O)=O)cc1 : > 100 µM
CC/C(=C\c1ccccc1)c1ccc(S(C)(=O)=O)cc1 : > 100 µM
CC/C(=C\c1ccc(C)cc1)c1ccc(S(C)(=O)=O)cc1 : 0.03 µM

Query compound follows.
## Input Record request: IC50 value, item CCCCCCC/C(=C\c1ccccc1)c1ccc(S(C)(=O)=O)cc1
## Output > 100 µM
